Overview of reported inhibition across a group of molecules:
# Species: Cavia porcellus
# MEASUREMENT PROTOCOL: Inhibition of Hartley guinea pig PDE4 assessed as hydrolization of cAMP by measuring [3H]cAMP at 100 nM by radioisotope method
The reply should contain only the number, in %.

MOLECULE	inhibition [%]
Oc1cnccc1CCCOc1cccnc1Oc1cc(Cl)cc(Cl)c1	6
Oc1cnccc1CCCOc1cccnc1Cc1cccc(Br)c1	87
COc1ccc(C2CNC(=O)C2)cc1OC1CCCC1 (stereo not drawn)	54

Prompt: Name the reported inhibition value associated with the molecule Brc1cccc(Cc2ncccc2OCCCc2ccncc2)c1
Response: 89

Prompt: Lookup Oc1cnccc1CCCOc1cccnc1Oc1ccccc1Cl
Response: 30

Prompt: Lookup O=C(c1cccc(Br)c1)c1ncccc1OCCCc1ccncc1
Response: 27

Prompt: Lookup Brc1cccc(Oc2ncccc2OCCCc2ccncc2)c1
Response: 80

Prompt: Lookup Oc1cnccc1CCCOc1cccnc1Oc1cccc(F)c1
Response: 74

###

Overview of reported inhibition across a group of molecules:
# Species on record: Cavia porcellus
# MEASUREMENT PROTOCOL: Inhibition of Hartley guinea pig PDE4 assessed as hydrolization of cAMP by measuring [3H]cAMP at 100 nM by radioisotope method
The reply should contain only the number, in %.

MOLECULE SMILES	inhibition / %
Oc1cnccc1CCCOc1cccnc1Oc1cccc(Br)c1	77
Brc1cccc(Nc2ncccc2OCCCc2ccncc2)c1	51
Oc1cnccc1CCCOc1cccnc1Oc1cccc(Cl)c1	75

Prompt: Name the reported inhibition value associated with the molecule Oc1cnccc1CCCOc1cccnc1Sc1cccc(Br)c1
Response: 66

Prompt: Lookup Oc1cnccc1CCCOc1cccnc1Oc1ccc(Cl)cc1
Response: 46

Prompt: Lookup Brc1cccc(Sc2ncccc2OCCCc2ccncc2)c1
Response: 80
